Tested on: Fibroblast
protocol text: Incucyte cell viability with human fibroblast; note: unitless GR value; below 1 slowed growth and below 0 cell loss
Format: toxicity, cell-based
run parameters: 6 h, 10 µM, compound concentration 10 uM, replicate number 1
Please use the following Growth Rate ranges when assigning a class: low group: < -0.6; middle group: ≥ -0.6 and < 0.6; high group: ≥ 0.6

Look over these answered cases.
CCN1C(=O)c2cc(C)ccc2N(C)c2ncccc21 :: middle group
Clc1cccc(Nc2nccc(NCCCN3CCOCC3)n2)c1 :: middle group
Cc1ccc(C)c(OCCCC(C)(C)C(=O)O[C@@H]2O[C@H](C(=O)O)[C@@H](O)[C@H](O)[C@H]2O)c1 :: high group
Cc1[nH]nc2ccc(-c3cncc(OCC(N)Cc4c[nH]c5ccccc45)c3)cc12 (stereo not given) :: low group

Input `COC[C@@H](C)N[C@H]1CC[C@H](Nc2cc(-c3cccc(NCC4(C#N)CCOCC4)n3)c(Cl)cn2)CC1` ; output its category middle group

Which category fits this record: `C=CC(=O)Nc1cccc(C)c1Nc1ncc2cc(-c3c(Cl)c(OC)cc(OC)c3Cl)ccc2n1` low group

Sort into band: `CCN(C)S(=O)(=O)Nc1cccc(-c2ccc3c(NC(=O)C4CC4)n[nH]c3c2)c1` middle group

Bin this entry: `Cn1c2ccccc2c2c3c(c4c5ccccc5n(CCC#N)c4c21)CNC3=O` low group

In plain terms, what class is `CCOC(=O)/N=C(\N)c1ccc(OCc2cccc(COc3ccc(C(C)(C)c4ccc(OC(=O)OCC)cc4)cc3)c2)cc1` ? middle group
